Values compiled from ChEMBL document CHEMBL2203120.

- Method summary: Lipophilicity, log P of compound by RP-HPLC analysis
- Type: physicochemical
Experimental readout: logP

Task: Entry "Oc1ccccc1/C=C/c1ccc2c(Cl)cc(Cl)c(O)c2n1" : reported logP = ?
Output: 5.07

Task: Now try "CCOc1ccccc1/C=C/c1ccc2c(Cl)cc(Cl)c(O)c2n1" .
Output: 5.67

Task: Now try "CCOc1ccc(/C=C/c2ccc3ccccc3n2)cc1" .
Output: 4.61

Task: Now try "Oc1c(Cl)cc(Cl)c2ccc(/C=C/c3ccc(/C=C/c4ccc5c(Cl)cc(Cl)c(O)c5n4)cc3)nc12" .
Output: 8.88

Others:
Task: Entry "Oc1cccc2ccc(/C=C/c3ccccc3Cl)nc12" : reported logP = ?
Output: 4.9

Task: Now try "Oc1c(Cl)cc(Cl)c2ccc(/C=C/c3ccccc3Cl)nc12" .
Output: 6.02

Task: Now try "Oc1cccc(/C=C/c2ccc3cccc(O)c3n2)c1" .
Output: 3.95

Task: Now try "Oc1ccccc1/C=C/c1ccc2ccccc2n1" .
Output: 4.34

Task: Now try "Oc1ccc(/C=C/c2ccc3c(Cl)cc(Cl)c(O)c3n2)cc1" .
Output: 5.07

* * *

// reported MIC80 for each item listed
- Tested on: Candida tropicalis
- Method summary: Antimicrobial activity against Candida tropicalis 156 after 24 hrs by broth microdilution test
- Type: functional
- Setup conditions: Candida tropicalis, 156, 24 h

Check out these entries, answers already filled in.
Task: Entry "CCOc1ccccc1/C=C/c1ccc2c(Cl)cc(Cl)c(O)c2n1" : reported MIC80 = ?
Output: 0.98 µM

Task: Now try "Oc1ccccc1/C=C/c1ccc2ccccc2n1" .
Output: > 125 µM

Task: Now try "CCOc1ccc(/C=C/c2ccc3ccccc3n2)cc1" .
Output: > 500 µM

Task: Now try "Clc1ccccc1/C=C/c1ccc2cccc(Cl)c2n1" .
Output: > 500 µM

Task: Now try "OC(Cn1cncn1)(Cn1cncn1)c1ccc(F)cc1F" .
Output: 0.12 µM

Task: Now try "Oc1cccc2ccc(/C=C/c3ccccc3Cl)nc12" .
Output: > 500 µM

Task: Now try "Oc1cc(O)cc(/C=C/c2ccc3c(Cl)cc(Cl)c(O)c3n2)c1" .
Output: > 125 µM

Task: Now try "Oc1cccc(/C=C/c2ccc3cccc(O)c3n2)c1" .
Output: > 125 µM

Task: Now try "CCOc1ccccc1/C=C/c1ccc2cccc(O)c2n1" .
Output: > 500 µM

Task: Now try "CCOc1ccc(/C=C/c2ccc3cccc(O)c3n2)cc1" .
Output: > 500 µM

Others:
Task: Entry "Clc1ccccc1/C=C/c1ccc2ccccc2n1" : reported MIC80 = ?
Output: > 500 µM

* * *

- System: Staphylococcus aureus
- Method summary: Antimicrobial activity against methicillin-resistant Staphylococcus aureus H 5996/08 after 48 hrs by broth microdilution method
- Type: functional
- Setup conditions: H 5996/08, 48 h
Experimental readout: MIC90 (µM)
The figure you give is taken to be in µM; do not add the unit.

Check out these entries, answers already filled in.
Task: Could you share what MIC90 was measured for "Oc1ccc(/C=C/c2ccc3c(Cl)cc(Cl)c(O)c3n2)cc1" , tested on Staphylococcus aureus?
Output: 31.2

Task: Now try "Oc1cccc(/C=C/c2ccc3cccc(O)c3n2)c1" .
Output: 125

Others:
Task: Could you share what MIC90 was measured for "Oc1ccccc1/C=C/c1ccc2cccc(O)c2n1" , tested on Staphylococcus aureus?
Output: 125

* * *

- System: Candida albicans
- Method summary: Antimicrobial activity against Candida albicans ATCC 44859 after 48 hrs by broth microdilution test
- Format: functional
- Setup conditions: ATCC 44859, 48 h
Experimental readout: MIC80 (µM)
The figure you give is taken to be in µM; do not add the unit.

Check out these entries, answers already filled in.
Task: Entry "Oc1c(Cl)cc(Cl)c2ccc(/C=C/c3ccc(/C=C/c4ccc5c(Cl)cc(Cl)c(O)c5n4)cc3)nc12" : reported MIC80 = ?
Output: 3.9

Task: Now try "CCOc1ccc(/C=C/c2ccc3c(Cl)cc(Cl)c(O)c3n2)cc1" .
Output: 125

Consider now this further molecule.
Task: Entry "OC(Cn1cncn1)(Cn1cncn1)c1ccc(F)cc1F" : reported MIC80 = ?
Output: 0.12

* * *

// reported MIC80 for each item listed
- System: Candida albicans
- Method summary: Antimicrobial activity against Candida albicans ATCC 44859 after 48 hrs by broth microdilution test
- Assay type: functional
- Setup conditions: ATCC 44859, 48 h
The figure you give is taken to be in µM; do not add the unit.

Task: Entry "CCOc1ccccc1/C=C/c1ccc2c(Cl)cc(Cl)c(O)c2n1" : reported MIC80 = ?
Output: 0.98

Consider now this further compound.
Task: Entry "Oc1ccccc1/C=C/c1ccc2cccc(O)c2n1" : reported MIC80 = ?
Output: 62.5

* * *

- System: Trichophyton mentagrophytes
- Method summary: Antimicrobial activity against Trichophyton mentagrophytes 445 after 120 hrs by broth microdilution test
- Assay type: functional
- Setup conditions: Trichophyton mentagrophytes, 445, 120 h
Experimental readout: MIC50 (µM)
The figure you give is taken to be in µM; do not add the unit.

Check out these entries, answers already filled in.
Task: Entry "CCOc1ccccc1/C=C/c1ccc2c(Cl)cc(Cl)c(O)c2n1" : reported MIC50 = ?
Output: 1.52

Task: Now try "Oc1ccc(/C=C/c2ccc3cccc(O)c3n2)c(O)c1" .
Output: 62.5

Task: Now try "CCOc1ccc(/C=C/c2ccc3c(Cl)cc(Cl)c(O)c3n2)cc1" .
Output: 125

Others:
Task: Entry "Oc1ccccc1/C=C/c1ccc2cccc(O)c2n1" : reported MIC50 = ?
Output: 62.5

* * *

// reported MIC80 for each item listed
- Test system: Trichosporon beigelii
- Method summary: Antimicrobial activity against Trichosporon beigelii 1188 after 24 hrs by broth microdilution test
- Assay type: functional
- Setup conditions: Trichosporon beigelii, 1188, 24 h

Check out these entries, answers already filled in.
Task: Entry "Oc1cc(O)cc(/C=C/c2ccc3c(Cl)cc(Cl)c(O)c3n2)c1" : reported MIC80 = ?
Output: > 125 µM

Task: Now try "CCOc1ccc(/C=C/c2ccc3cccc(O)c3n2)cc1" .
Output: > 250 µM

Task: Now try "Clc1ccccc1/C=C/c1ccc2ccccc2n1" .
Output: > 500 µM

Others:
Task: Entry "Oc1ccc(/C=C/c2ccc3cccc(O)c3n2)c(O)c1" : reported MIC80 = ?
Output: 62.5 µM

* * *

// reported logP for each item listed
- Method summary: Lipophilicity, log P of compound by RP-HPLC analysis
- Assay type: physicochemical
Give your answer as a number; write no unit.

Task: Entry "Clc1ccccc1/C=C/c1ccc2ccccc2n1" : reported logP = ?
Output: 5.25

Task: Now try "Oc1ccc(/C=C/c2ccc3cccc(O)c3n2)c(O)c1" .
Output: 3.56

Task: Now try "CCOc1ccccc1/C=C/c1ccc2cccc(O)c2n1" .
Output: 4.55

Consider now this further compound.
Task: Entry "Oc1cc(O)cc(/C=C/c2ccc3c(Cl)cc(Cl)c(O)c3n2)c1" : reported logP = ?
Output: 4.68

* * *

- Tested on: Candida tropicalis
- Method summary: Antimicrobial activity against Candida tropicalis 156 after 24 hrs by broth microdilution test
- Format: functional
- Setup conditions: Candida tropicalis, 156, 24 h
Experimental readout: MIC80 (µM)
The figure you give is taken to be in µM; do not add the unit.

Task: Entry "CCOc1ccc(/C=C/c2ccc3c(Cl)cc(Cl)c(O)c3n2)cc1" : reported MIC80 = ?
Output: 125

Others:
Task: Entry "Oc1ccccc1/C=C/c1ccc2cccc(O)c2n1" : reported MIC80 = ?
Output: 125

* * *

- Test system: Staphylococcus aureus
- Method summary: Antimicrobial activity against methicillin-resistant Staphylococcus aureus H 5996/08 after 48 hrs by broth microdilution method
- Assay type: functional
- Setup conditions: H 5996/08, 48 h
Experimental readout: MIC90

Task: Could you share what MIC90 was measured for "CCOc1ccc(/C=C/c2ccc3cccc(O)c3n2)cc1" , tested on Staphylococcus aureus?
Output: > 500 µM

Others:
Task: Could you share what MIC90 was measured for "Oc1cccc2ccc(/C=C/c3ccccc3Cl)nc12" , tested on Staphylococcus aureus?
Output: > 500 µM

Task: Now try "Clc1ccccc1/C=C/c1ccc2ccccc2n1" .
Output: > 500 µM

* * *

- Test system: Candida albicans
- Method summary: Antimicrobial activity against Candida albicans ATCC 44859 after 48 hrs by broth microdilution test
- Type: functional
- Setup conditions: ATCC 44859, 48 h
// reported MIC80 for each item listed

Task: Entry "Oc1cc(O)cc(/C=C/c2ccc3c(Cl)cc(Cl)c(O)c3n2)c1" : reported MIC80 = ?
Output: > 125 µM

Task: Now try "Oc1cccc(/C=C/c2ccc3cccc(O)c3n2)c1" .
Output: > 125 µM

Task: Now try "Oc1ccc(/C=C/c2ccc3cccc(O)c3n2)c(O)c1" .
Output: > 125 µM
